System: CCRIS mutagenicity, Ames/micronucleus/aberration tests
Test: CCRIS mutagenicity studies
Conditions: Test System: AMES SALMONELLA TYPHIMURIUM; Strain/Indicator: TA100; Metabolic Activation: NONE; Method: STANDARD PLATE
Calls of active or inactive are those of the source. The rule behind the calls is not given here.
Please state which outcome applies, choosing from YES = active, NO = inactive

Below are worked cases with known answers.
molecule: CCOC(=O)C(C)Br (stereo unspecified)
classAssignment: YES

molecule: N#C/C(=C/C=C/c1ccccc1)c1ccccc1Cl
classAssignment: YES

molecule: O=C1c2ccccc2C(=O)c2c1ccc(O)c2O
classAssignment: NO

molecule: O=C1c2ccccc2C([N+](=O)[O-])c2ccccc21
classAssignment: NO

molecule: Clc1ccc(CN2[C@@H]3c4ccccc4-c4ccccc4[C@@H]32)cc1 (stereo partly specified)
classAssignment: YES

molecule: O=C1Nc2ccc([N+](=O)[O-])cc2C1=O
classAssignment: YES

molecule: Oc1ccc(ON2P(Oc3ccc(O)cc3)N=P(Oc3ccc(O)cc3)(Oc3ccc(O)cc3)N(Oc3ccc(O)cc3)P2Oc2ccc(O)cc2)cc1 (stereo unspecified)
classAssignment: NO

molecule: CC(=O)N(O)c1ccc(C)cc1
classAssignment: NO

molecule: COc1cc(/C=C/C(=O)O[C@H]2CC[C@]34C[C@]35CC[C@]3(C)[C@@H]([C@H](C)CCC=C(C)C)CC[C@@]3(C)[C@@H]5CC[C@H]4C2(C)C)ccc1O
classAssignment: NO

molecule: CN1C(=O)CN=C(c2ccccc2F)c2cc([N+](=O)[O-])ccc21
classAssignment: YES

Query: Record lookup: outcome of this test for C[Si](C)(C)N[Si](C)(C)C ?
Reply: NO

Query: Record lookup: outcome of this test for Oc1ccc2ccc3c4c(ccc3c2c1)[C@@H](O)[C@H](O)C=C4 ?
Reply: NO

Query: Record lookup: outcome of this test for CC/C(=C(\c1ccccc1)c1ccc(OCCN(C)C)cc1)c1ccccc1 ?
Reply: NO

Query: Record lookup: outcome of this test for ClCc1c2ccccc2c(Cl)c2ccccc12 ?
Reply: YES

Query: Record lookup: outcome of this test for O[C@@H]1[C@H]2O[C@H]2c2c(ccc3nc4ccc5ccccc5c4cc23)[C@H]1O ?
Reply: YES

Query: Record lookup: outcome of this test for O=C(O)c1occ(-c2ccccc2)c1-c1ccccc1 ?
Reply: NO

Query: Record lookup: outcome of this test for ClN1C2c3ccccc3-c3ccccc3C21 (stereo unspecified) ?
Reply: YES

Query: Record lookup: outcome of this test for c1ccc2c(OCC3CO3)cccc2c1 (stereo unspecified) ?
Reply: YES

Query: Record lookup: outcome of this test for c1ccc2c(c1)c1ccccc1c1cc3cnccc3cc21 ?
Reply: NO

Query: Record lookup: outcome of this test for C[N+]1(CCNP(=S)(NCC[N+]2(C)Cc3c(ccc4c3OCO4)[C@@H]3[C@H]2c2cc4c(cc2C[C@@H]3O)OCO4)NCC[N+]2(C)Cc3c(ccc4c3OCO4)[C@@H]3[C@H]2c2cc4c(cc2C[C@@H]3O)OCO4)Cc2c(ccc3c2OCO3)[C@@H]2[C@H]1c1cc3c(cc1C[C@@H]2O)OCO3 (stereo partly specified) ?
Reply: NO

Query: Record lookup: outcome of this test for COc1cc(-c2oc3cc(O)cc(O)c3c(=O)c2O)ccc1O ?
Reply: NO

====

Test system: CCRIS mutagenicity, Ames/micronucleus/aberration tests
Test: CCRIS mutagenicity studies
Conditions: Test System: AMES SALMONELLA TYPHIMURIUM; Strain/Indicator: TA100; Metabolic Activation: NONE; Method: PREINCUBATION
Calls of active or inactive are those of the source. The rule behind the calls is not given here.
quantity: mutagenic call

compound: O[C@H]1c2cccc3ccc4cccc(c4c23)[C@@H]1O
mutagenic call: inactive; negative
--
compound: CC(C)Nc1ccc(Nc2ccccc2)cc1
mutagenic call: inactive; negative
--
compound: O[C@@H]1[C@H]2O[C@H]2c2c(ccc3ccccc23)[C@H]1O
mutagenic call: active; positive
--
compound: NCCCCCCN
mutagenic call: inactive; negative
--
compound: N#CCCC(=O)CCc1ccc(C(=O)O)cc1
mutagenic call: inactive; negative

Each compound below has a reported value. Please supply its mutagenic call.
1. NS(=O)(=O)c1cc2c(cc1Cl)NC=NS2(=O)=O
2. Cc1ccc2c(c1)C(=O)c1cc(O)ccc1C2=O
3. O=C(NO)c1ccccc1
4. S=C=Nc1cccc2ccccc12
5. Cc1ccc2cccnc2c1

Reply:
inactive; negative
active; positive
active; positive
inactive; negative
inactive; negative
